Tested on: Aspergillus fumigatus
Test: Antifungal activity against Aspergillus fumigatus clinical isolates after 48 hrs by broth microdilution method
Type: functional
Starred links: 1 amine or outer side, 2 acyl side, 3 side chain; linkers in the order of their positions; H or OH if unused. Positions of bridges follow the written chain, without caps; N, C: chain ends. Non-standard residues stand in square brackets, D forms with d. Residues, ends and D or L forms follow the SMILES beside them. *: point of attachment. hTyr(3S-OH,4S-OH,3'-OSO3H) = N[C@H](C(=O)O)[C@H](O)[C@@H](O)c1ccc(O)c(OS(=O)(=O)O)c1; Orn(4R-OH,5R-OH) = O=C([C@H](C[C@@H](O)[C@@H](O)N[*:3])N[*:1])[*:2]; Pro(3S-OH,4S-Me) = C[C@H]1CN[C@H](C(=O)O)[C@H]1O; X1 = CCCCCOc1ccc(-c2cc(-c3ccc(C(=O)*)cc3)no2)cc1; Gln(3R-OH) = NC(=O)C[C@@H](O)[C@H](N)C(=O)O; Hyp = O=C(O)[C@@H]1C[C@@H](O)CN1
attribute-measured: MIC50

Recorded results for 2 compounds are shown here.
compound: C[C@@H]1[C@H](O)[C@@H](C)/C=C/C=C/C=C/C=C/C=C/C=C/C=C/[C@H](O[C@@H]2O[C@H](C)[C@@H](O)[C@H](N)[C@@H]2O)C[C@@H]2O[C@](O)(C[C@@H](O)C[C@@H](O)[C@H](O)CC[C@@H](O)C[C@@H](O)CC(=O)O[C@H]1C)C[C@H](O)[C@H]2C(=O)O
system: Aspergillus fumigatus
attribute-measured: MIC50
measured: 2 µg/mL
//
compound: C[C@@H](c1ncncc1F)[C@](O)(Cn1cncn1)c1ccc(F)cc1F
system: Aspergillus fumigatus
attribute-measured: MIC50
measured: 1 µg/mL

// input: 3 compounds below; output: MIC50 for each
1. N=C(N)c1ccc(OCCCC2CCN(CCCOc3ccc(C(=N)N)cc3)CC2)cc1
2. OC(Cn1cncn1)(Cn1cncn1)c1ccc(F)cc1F
3. CCCCCOc1ccc(-c2cc(-c3ccc(C(=O)N[C@H]4C[C@@H](O)[C@@H](O)NC(=O)[C@@H]5[C@@H](O)[C@@H](C)CN5C(=O)[C@H]([C@H](O)CC(N)=O)NC(=O)[C@H]([C@H](O)[C@@H](O)c5ccc(O)c(OS(=O)(=O)O)c5)NC(=O)[C@@H]5C[C@@H](O)CN5C(=O)[C@H]([C@@H](C)O)NC4=O)cc3)no2)cc1 [MICAFUNGIN] (X1-[Orn(4R-OH,5R-OH)]T[Hyp][hTyr(3S-OH,4S-OH,3'-OSO3H)][Gln(3R-OH)][Pro(3S-OH,4S-Me)]; lactam 1-C)

1 µg/mL
> 64 µg/mL
0.0313 µg/mL

---

Test system: Candida albicans
Test: Antifungal activity against Candida albicans ATCC 24433 after 48 hrs by broth microdilution method
Type: functional
Details: ATCC 24433, 48 h
Starred links: 1 amine or outer side, 2 acyl side, 3 side chain; linkers in the order of their positions; H or OH if unused. Positions of bridges follow the written chain, without caps; N, C: chain ends. Non-standard residues stand in square brackets, D forms with d. Residues, ends and D or L forms follow the SMILES beside them. *: point of attachment. hTyr(3S-OH,4S-OH,3'-OSO3H) = N[C@H](C(=O)O)[C@H](O)[C@@H](O)c1ccc(O)c(OS(=O)(=O)O)c1; Orn(4R-OH,5R-OH) = O=C([C@H](C[C@@H](O)[C@@H](O)N[*:3])N[*:1])[*:2]; Pro(3S-OH,4S-Me) = C[C@H]1CN[C@H](C(=O)O)[C@H]1O; X1 = CCCCCOc1ccc(-c2cc(-c3ccc(C(=O)*)cc3)no2)cc1; Gln(3R-OH) = NC(=O)C[C@@H](O)[C@H](N)C(=O)O; Hyp = O=C(O)[C@@H]1C[C@@H](O)CN1
attribute-measured: MFC (µg/mL)
Numbers only, in µg/mL.

compound: CCCCCOc1ccc(-c2cc(-c3ccc(C(=O)N[C@H]4C[C@@H](O)[C@@H](O)NC(=O)[C@@H]5[C@@H](O)[C@@H](C)CN5C(=O)[C@H]([C@H](O)CC(N)=O)NC(=O)[C@H]([C@H](O)[C@@H](O)c5ccc(O)c(OS(=O)(=O)O)c5)NC(=O)[C@@H]5C[C@@H](O)CN5C(=O)[C@H]([C@@H](C)O)NC4=O)cc3)no2)cc1 [MICAFUNGIN] (X1-[Orn(4R-OH,5R-OH)]T[Hyp][hTyr(3S-OH,4S-OH,3'-OSO3H)][Gln(3R-OH)][Pro(3S-OH,4S-Me)]; lactam 1-C)
attribute-measured: MFC
measurement-unit: µg/mL
measured: 0.25

Moving on to another compound below.
Tell us which MFC value is on record for C[C@@H]1[C@H](O)[C@@H](C)/C=C/C=C/C=C/C=C/C=C/C=C/C=C/[C@H](O[C@@H]2O[C@H](C)[C@@H](O)[C@H](N)[C@@H]2O)C[C@@H]2O[C@](O)(C[C@@H](O)C[C@@H](O)[C@H](O)CC[C@@H](O)C[C@@H](O)CC(=O)O[C@H]1C)C[C@H](O)[C@H]2C(=O)O [AMPHOTERICIN B] 1

The reported numbers originate from ChEMBL document CHEMBL1255303.
